These measurements were taken from paper PMC5529566.

- target-of-assay: H^+,K^+-ATPase D137N/N138D (Sus scrofa, UniProt P19156, D138N/N139D)
- Sequence (P19156 whole entry D138N/N139D, one chain of several): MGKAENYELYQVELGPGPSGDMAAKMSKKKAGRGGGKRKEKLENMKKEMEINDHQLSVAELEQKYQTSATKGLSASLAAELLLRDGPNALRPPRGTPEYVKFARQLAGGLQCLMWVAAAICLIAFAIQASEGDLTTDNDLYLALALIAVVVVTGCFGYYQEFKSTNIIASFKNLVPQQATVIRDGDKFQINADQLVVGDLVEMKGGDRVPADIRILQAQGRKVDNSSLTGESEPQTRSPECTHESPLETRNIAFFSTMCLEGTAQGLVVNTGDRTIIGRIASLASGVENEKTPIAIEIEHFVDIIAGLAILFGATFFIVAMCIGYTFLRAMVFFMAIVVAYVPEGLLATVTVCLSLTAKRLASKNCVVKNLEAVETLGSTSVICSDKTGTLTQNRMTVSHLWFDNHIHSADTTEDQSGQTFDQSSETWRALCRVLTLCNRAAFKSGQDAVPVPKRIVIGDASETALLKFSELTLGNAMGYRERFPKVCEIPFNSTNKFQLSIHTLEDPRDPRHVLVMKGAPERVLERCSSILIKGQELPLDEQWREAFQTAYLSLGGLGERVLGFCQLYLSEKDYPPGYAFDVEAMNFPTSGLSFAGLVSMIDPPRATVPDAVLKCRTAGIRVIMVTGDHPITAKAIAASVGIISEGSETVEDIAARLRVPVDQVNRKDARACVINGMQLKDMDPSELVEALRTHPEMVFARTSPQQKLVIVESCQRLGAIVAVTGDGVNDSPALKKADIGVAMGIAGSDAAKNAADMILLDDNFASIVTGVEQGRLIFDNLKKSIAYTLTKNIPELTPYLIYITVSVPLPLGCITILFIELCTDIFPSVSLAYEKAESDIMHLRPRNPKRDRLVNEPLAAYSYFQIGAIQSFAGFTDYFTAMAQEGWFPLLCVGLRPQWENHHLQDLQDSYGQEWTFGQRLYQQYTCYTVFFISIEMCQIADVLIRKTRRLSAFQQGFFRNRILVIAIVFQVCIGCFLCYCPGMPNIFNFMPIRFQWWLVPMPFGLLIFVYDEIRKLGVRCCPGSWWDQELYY
- procedure-text: ATPase assay, D137N/N138D mutant
- particulars: D137N/N138D; global fitting
pKi: −log10 of the molar value.

{"columns": ["compound-structure-string", "pKi"],
 "data": [
  ["Cc1cn2cccc(OCc3ccccc3)c2n1", 4.64]
]}

----------
- target-of-assay: H^+,K^+-ATPase Y799F (Sus scrofa, UniProt P19156, Y800F)
- Sequence (P19156 whole entry Y800F, one chain of several): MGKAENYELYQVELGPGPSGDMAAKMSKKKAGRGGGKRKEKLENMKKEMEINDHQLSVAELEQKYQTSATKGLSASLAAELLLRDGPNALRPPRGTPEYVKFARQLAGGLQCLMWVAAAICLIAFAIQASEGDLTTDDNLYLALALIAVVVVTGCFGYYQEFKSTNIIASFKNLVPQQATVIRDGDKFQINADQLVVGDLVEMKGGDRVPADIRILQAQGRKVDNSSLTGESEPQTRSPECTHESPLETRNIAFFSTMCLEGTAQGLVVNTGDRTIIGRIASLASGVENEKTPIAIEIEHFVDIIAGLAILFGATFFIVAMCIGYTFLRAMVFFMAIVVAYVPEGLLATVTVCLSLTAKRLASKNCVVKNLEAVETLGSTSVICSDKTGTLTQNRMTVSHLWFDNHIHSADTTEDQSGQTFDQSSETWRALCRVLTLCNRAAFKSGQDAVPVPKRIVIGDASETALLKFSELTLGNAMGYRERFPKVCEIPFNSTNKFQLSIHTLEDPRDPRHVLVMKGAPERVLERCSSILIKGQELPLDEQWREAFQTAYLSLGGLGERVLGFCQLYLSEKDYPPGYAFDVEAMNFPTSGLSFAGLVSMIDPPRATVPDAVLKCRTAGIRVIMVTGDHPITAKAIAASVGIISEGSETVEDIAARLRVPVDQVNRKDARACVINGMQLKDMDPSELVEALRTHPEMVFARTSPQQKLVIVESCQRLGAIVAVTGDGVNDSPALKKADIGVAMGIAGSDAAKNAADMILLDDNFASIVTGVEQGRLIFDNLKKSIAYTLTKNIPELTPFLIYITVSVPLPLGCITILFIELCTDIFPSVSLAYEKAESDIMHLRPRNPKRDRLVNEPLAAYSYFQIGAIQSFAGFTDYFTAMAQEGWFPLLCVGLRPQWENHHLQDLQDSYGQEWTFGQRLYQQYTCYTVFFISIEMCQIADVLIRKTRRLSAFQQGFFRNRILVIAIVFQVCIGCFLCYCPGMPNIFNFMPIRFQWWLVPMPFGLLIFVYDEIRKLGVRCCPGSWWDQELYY
- procedure-text: ATPase assay, Y799F mutant
pKi: −log10 of the molar value.

{"columns": ["molecule", "target-of-assay", "pKi"],
 "data": [
  ["Cc1nc2c3c(ccn2c1C)[C@@H](O)[C@H](O)[C@@H](c1ccccc1)N3C [BYK73]", "H^+,K^+-ATPase Y799F (Sus scrofa, UniProt P19156, Y800F)", 4.68],
  ["Cc1nc2c3c(ccn2c1C)[C@@H](O)[C@H](O)[C@@H](c1ccccc1)N3 [BYK99]", "H^+,K^+-ATPase Y799F (Sus scrofa, UniProt P19156, Y800F)", 6.96],
  ["Cc1cn2cccc(OCc3ccccc3)c2n1 [SCH-CN^−]", "H^+,K^+-ATPase Y799F (Sus scrofa, UniProt P19156, Y800F)", 4.74],
  ["N#CCc1cnc2c(OCc3ccccc3)cccn12 [SCH-Me^−]", "H^+,K^+-ATPase Y799F (Sus scrofa, UniProt P19156, Y800F)", 4.51]
]}

----------
Reported values of Ki for individual entries
- target-of-assay: H^+,K^+-ATPase D136L (Sus scrofa, UniProt P19156, D137L)
- Sequence (P19156 whole entry D137L): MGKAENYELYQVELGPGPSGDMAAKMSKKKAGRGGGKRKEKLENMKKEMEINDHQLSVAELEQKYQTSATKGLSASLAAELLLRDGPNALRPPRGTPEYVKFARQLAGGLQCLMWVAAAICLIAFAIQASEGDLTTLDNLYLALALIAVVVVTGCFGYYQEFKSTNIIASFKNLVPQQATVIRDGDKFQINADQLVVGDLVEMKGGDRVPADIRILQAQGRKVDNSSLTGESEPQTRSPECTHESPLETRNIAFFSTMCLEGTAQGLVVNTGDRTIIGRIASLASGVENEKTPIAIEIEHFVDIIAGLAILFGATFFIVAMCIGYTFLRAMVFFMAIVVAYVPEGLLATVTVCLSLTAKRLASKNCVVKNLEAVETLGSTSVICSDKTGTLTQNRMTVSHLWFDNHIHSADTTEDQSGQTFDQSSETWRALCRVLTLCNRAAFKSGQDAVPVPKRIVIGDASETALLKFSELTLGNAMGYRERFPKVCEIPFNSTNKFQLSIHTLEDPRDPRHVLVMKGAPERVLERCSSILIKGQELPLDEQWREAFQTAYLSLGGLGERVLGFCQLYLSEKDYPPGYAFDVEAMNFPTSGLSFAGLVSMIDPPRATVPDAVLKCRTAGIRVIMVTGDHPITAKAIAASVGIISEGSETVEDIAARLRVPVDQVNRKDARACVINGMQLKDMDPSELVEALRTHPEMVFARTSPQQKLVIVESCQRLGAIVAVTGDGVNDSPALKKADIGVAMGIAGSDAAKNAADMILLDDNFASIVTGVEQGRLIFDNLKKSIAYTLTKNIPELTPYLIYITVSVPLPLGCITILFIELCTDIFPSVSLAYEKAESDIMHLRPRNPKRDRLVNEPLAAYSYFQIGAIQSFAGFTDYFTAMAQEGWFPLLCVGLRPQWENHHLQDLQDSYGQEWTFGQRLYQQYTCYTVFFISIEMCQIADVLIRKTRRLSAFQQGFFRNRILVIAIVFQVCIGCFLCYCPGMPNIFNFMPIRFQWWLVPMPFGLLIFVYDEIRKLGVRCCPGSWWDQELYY
- Sequence (P18434 whole entry partner): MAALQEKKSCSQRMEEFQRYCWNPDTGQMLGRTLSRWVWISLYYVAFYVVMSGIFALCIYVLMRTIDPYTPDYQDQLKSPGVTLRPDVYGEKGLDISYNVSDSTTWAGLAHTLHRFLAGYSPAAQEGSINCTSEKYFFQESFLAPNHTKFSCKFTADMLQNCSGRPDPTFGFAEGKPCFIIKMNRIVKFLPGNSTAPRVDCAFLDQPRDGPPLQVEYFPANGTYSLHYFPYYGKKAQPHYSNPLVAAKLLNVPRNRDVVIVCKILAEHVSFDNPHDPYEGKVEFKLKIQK
- procedure-text: ATPase assay, D136L mutant

{"columns": ["compound", "Ki, µM"],
 "data": [
  ["Cc1nc2c3c(ccn2c1C)[C@@H](O)[C@H](O)[C@@H](c1ccccc1)N3 [BYK99]", 0.0053],
  ["Cc1cn2cccc(OCc3ccccc3)c2n1 [SCH-CN^−]", 3.3],
  ["Cc1nc2c3c(ccn2c1C)[C@@H](O)[C@H](O)[C@@H](c1ccccc1)N3C [BYK73]", 3.2],
  ["N#CCc1cnc2c(OCc3ccccc3)cccn12 [SCH-Me^−]", 5.4]
]}

----------
List of -fold increase in K i compared with wild-type values.
- target-of-assay: H^+,K^+-ATPase A335G (Sus scrofa, UniProt P19156, A336G)
- Sequence (P19156 whole entry A336G, one chain of several): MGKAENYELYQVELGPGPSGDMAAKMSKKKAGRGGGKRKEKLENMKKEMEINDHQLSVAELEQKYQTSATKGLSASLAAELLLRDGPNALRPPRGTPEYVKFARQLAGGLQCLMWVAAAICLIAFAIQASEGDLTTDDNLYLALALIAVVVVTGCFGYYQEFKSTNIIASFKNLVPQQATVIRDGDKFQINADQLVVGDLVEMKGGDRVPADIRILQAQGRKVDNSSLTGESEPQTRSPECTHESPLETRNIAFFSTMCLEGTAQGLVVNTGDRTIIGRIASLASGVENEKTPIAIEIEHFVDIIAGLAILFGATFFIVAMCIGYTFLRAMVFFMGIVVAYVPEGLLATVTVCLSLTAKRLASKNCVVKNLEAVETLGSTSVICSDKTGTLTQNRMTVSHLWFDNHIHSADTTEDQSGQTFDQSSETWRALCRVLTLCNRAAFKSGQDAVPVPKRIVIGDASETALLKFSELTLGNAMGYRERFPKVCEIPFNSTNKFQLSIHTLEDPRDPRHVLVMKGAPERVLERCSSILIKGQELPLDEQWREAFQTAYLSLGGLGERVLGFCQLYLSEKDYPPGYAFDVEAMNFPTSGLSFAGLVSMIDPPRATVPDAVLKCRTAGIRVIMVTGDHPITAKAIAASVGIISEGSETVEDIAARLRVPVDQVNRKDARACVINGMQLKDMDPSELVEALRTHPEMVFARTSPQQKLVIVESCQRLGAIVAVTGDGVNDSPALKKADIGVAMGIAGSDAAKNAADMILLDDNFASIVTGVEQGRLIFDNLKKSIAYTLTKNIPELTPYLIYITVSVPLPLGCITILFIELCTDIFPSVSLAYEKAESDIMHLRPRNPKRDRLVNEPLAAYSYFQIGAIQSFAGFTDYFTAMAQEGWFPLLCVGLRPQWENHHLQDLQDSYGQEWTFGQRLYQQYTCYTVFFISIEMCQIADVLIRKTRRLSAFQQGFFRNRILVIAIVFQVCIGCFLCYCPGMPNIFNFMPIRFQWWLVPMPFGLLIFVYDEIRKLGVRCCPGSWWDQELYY
- procedure-text: ATPase assay, A335G mutant
- particulars: A335G
value-kind: -fold increase in K i compared with wild-type

{"columns": ["compound-structure-string", "target-of-assay", "experimental-result"],
 "data": [
  ["Cc1nc2c3c(ccn2c1C)[C@@H](O)[C@H](O)[C@@H](c1ccccc1)N3", "H^+,K^+-ATPase A335G (Sus scrofa, UniProt P19156, A336G)", "0.2 fold"],
  ["Cc1cn2cccc(OCc3ccccc3)c2n1", "H^+,K^+-ATPase A335G (Sus scrofa, UniProt P19156, A336G)", "0.3 fold"],
  ["N#CCc1cnc2c(OCc3ccccc3)cccn12", "H^+,K^+-ATPase A335G (Sus scrofa, UniProt P19156, A336G)", "0.15 fold"],
  ["Cc1nc2c3c(ccn2c1C)[C@@H](O)[C@H](O)[C@@H](c1ccccc1)N3C", "H^+,K^+-ATPase A335G (Sus scrofa, UniProt P19156, A336G)", "0.016 fold"]
]}
